These entries and their values trace back to patent US9598440B2.

Biological target: IRAK4 (Homo sapiens (Human), UniProt Q9NWZ3)
Sequence (Q9NWZ3 whole entry): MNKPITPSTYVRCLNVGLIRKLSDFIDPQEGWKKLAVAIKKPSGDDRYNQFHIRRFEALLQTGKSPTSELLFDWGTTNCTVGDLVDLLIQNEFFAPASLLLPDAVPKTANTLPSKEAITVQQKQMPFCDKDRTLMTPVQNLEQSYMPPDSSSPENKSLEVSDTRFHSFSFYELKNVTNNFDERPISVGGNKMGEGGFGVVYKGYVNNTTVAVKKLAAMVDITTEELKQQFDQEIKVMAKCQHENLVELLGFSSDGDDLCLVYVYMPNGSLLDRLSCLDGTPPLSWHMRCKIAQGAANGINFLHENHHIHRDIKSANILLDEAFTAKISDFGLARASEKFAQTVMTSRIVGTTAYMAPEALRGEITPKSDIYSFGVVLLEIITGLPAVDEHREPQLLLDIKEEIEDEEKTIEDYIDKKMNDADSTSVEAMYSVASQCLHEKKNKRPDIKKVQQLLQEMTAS
pIC50: −log10 of the molar value.
readout.name: pIC50

a. Cc1nc(N2CCC(C)CC2)nc(N[C@@H]2C[C@H](CO)[C@@H](O)[C@H]2O)c1-c1nc2ccccc2s1
b. Cc1csc(-c2cnc(NC3CCC3)nc2N[C@@H]2C[C@H](C(C)(C)O)[C@@H](O)[C@H]2O)n1
c. Cc1nc(N2CCC(N)CC2)nc(N[C@@H]2C[C@H](CO)[C@@H](O)[C@H]2O)c1-c1nc2ccccc2s1
d. OC[C@H]1C[C@@H](Nc2nc(Nc3ccnc(OC4CC4)c3)ncc2-c2ccc3ccccc3n2)[C@H](O)[C@@H]1O
Ascending sort, pIC50. Please list the labels according to the requested order.
c, a, b, d
(c: 4.94, a: 6.02, b: 6.57, d: 7.37)

----------
Biological target: IRAK4 (Homo sapiens (Human), UniProt Q9NWZ3)
readout.name: IC50 (nM)

Solved cases below.
1) COc1cccc([C@@H](C)Nc2ncc(-c3nc4ccccc4s3)c(N[C@@H]3C[C@H](CO)[C@@H](O)[C@H]3O)n2)c1 [Example 36] = 470
2) Nc1ncc(-c2nc(-c3ccccc3)cs2)c(N[C@@H]2C[C@H](CO)[C@@H](O)[C@H]2O)n1 [Example 11] = 409

I. COc1cc(Nc2ncc(-c3nc4ccccc4s3)c(N[C@@H]3CC(C(C)(C)O)[C@@H](O)[C@H]3O)n2)ccn1 (stereo in doubt) [Example 126]
II. OC[C@H]1C[C@@H](Nc2nc(NC3CCC3)ncc2-c2nc3cnccc3s2)[C@H](O)[C@@H]1O [Example 76]
III. COc1cc(Nc2ncc(-c3nc(C)cs3)c(N[C@@H]3C[C@H](C(C)(C)O)[C@@H](O)[C@H]3O)n2)ccn1 [Example 135]
IV. Cc1cc(Nc2ncc(-c3nc4c(C)nccc4s3)c(N[C@@H]3CC(C(C)(C)O)[C@@H](O)[C@H]3O)n2)cc(C)n1 (stereo in doubt) [Example 138]
V. COc1cc(Nc2ncc(-c3ccc4ccccc4n3)c(N[C@@H]3C[C@H](CO)[C@@H](O)[C@H]3OC)n2)ccn1 [Example 141]
Please list these compounds in decreasing order of IC50. Please list the labels according to the requested order.
II, V, I, III, IV
(II: 560 nM, V: 33 nM, I: 9 nM, III: 1 nM, IV: 0.5 nM)

----------
Biological target: IRAK4 (Homo sapiens (Human), UniProt Q9NWZ3)
readout.name: IC50 (nM)

A. Cc1nc(Nc2cccc(O)c2)nc(N[C@@H]2C[C@H](CO)[C@@H](O)[C@H]2O)c1-c1nc2ccccc2s1 [Example 104]
B. OC[C@H]1C[C@@H](Nc2nc(NC3CCNC3)ncc2-c2nc3ccccc3s2)[C@H](O)[C@@H]1O (mixture of isomers) [Example 51]
C. CC(C)(O)C1C[C@@H](Nc2nc(Nc3cccc(C#N)c3)ncc2-c2nc3ccccc3s2)[C@H](O)[C@@H]1O (stereo in doubt) [Example 115]
D. Cc1nc(N)nc(N[C@@H]2C[C@H](CO)[C@@H](O)[C@H]2O)c1-c1nc(Br)cs1 [Example 95]
Ascending sort, IC50. Please list the labels according to the requested order.
C, A, B, D

----------
Target: UniProt:Q9NWZ3
readout.name: IC50 (nM)

a. CO[C@@H]1[C@H](O)[C@@H](CO)C[C@H]1Nc1cc(Nc2cc(C)nc(C)c2)ncc1-c1nc2ccccc2s1
b. CC(C)(O)C1C[C@@H](Nc2nc(Nc3ccnc(C(F)(F)F)c3)ncc2-c2nc3ccccc3s2)[C@H](O)[C@@H]1O (stereo in doubt)
Which entry shows the lesser value of IC50 here, a or b ? Lab note: record the label of whichever item you select.
b
(b: 10 nM, a: 83 nM)

----------
List of IC50 tested on IRAK4 (Homo sapiens (Human)).
readout.name: IC50 (nM)

Solved cases below.
1. COc1cc(Nc2ncc(-c3nc4ccccc4s3)c(N[C@@H]3C[C@H](C)[C@@H](O)[C@H]3O)n2)ccn1 = 132
2. Cc1cc(Nc2ncc(-c3ccc4ccccc4n3)c(N[C@@H]3CC(C(C)(C)O)[C@@H](O)[C@H]3O)n2)cc(C)n1 (stereo in doubt) = 0.2
3. OC[C@H]1C[C@@H](Nc2nc(Nc3cncnc3)ncc2-c2nc3ccccc3s2)[C@H](O)[C@@H]1O = 4.8

P. Nc1ncc(-c2nc3ccccc3o2)c(N[C@@H]2C[C@H](CO)[C@@H](O)[C@H]2O)n1
Q. COc1ccc(Nc2ncc(-c3nc4ccccc4s3)c(N[C@@H]3C[C@H](CO)[C@@H](O)[C@H]3O)n2)cc1
Hi team, can someone confirm which has the larger IC50: P or Q ? Thanks. Lab note: record the label of whichever item you select.
P
(P: 2560 nM, Q: 14 nM)

----------
Target: UniProt Q9NWZ3
Test: Determination of IRAK4 kinase activity (IMAP fluorescence polarization, phosphorylation of fluorescent peptide substrate)
Format: biochemical
Conditions: 0.5 nM GST tagged IRAK4, 100 nM peptide substrate RP7030, 100 μM ATP, 30 minutes at 25° C.
Method: The kinase activity of IRAK4 is determined by its ability to catalyze the phosphorylation of a fluorescent polypeptide substrate. The extent of phosphorylation is measured using IMAP technology (Molecular Devices) where the phosphorylated fluorescent substrate binds to the large M(III)-based nanoparticles which reduces the rotational speed of the substrate and thus increases its fluorescent polarization (FP). […]
pIC50: −log10 of the molar value.
readout.name: pIC50

Solved cases below.
1) OC[C@H]1C[C@@H](Nc2nc(Nc3cccnc3)ncc2-c2nc(-c3ccccc3)cs2)[C@H](O)[C@@H]1O [Example 82] = 5.49
2) Cc1cc(Nc2nc(C)c(-c3nc4ccccc4s3)c(N[C@@H]3C[C@H](CO)[C@@H](O)[C@H]3O)n2)cc(C)n1 [Example 87] = 6.92
3) Cc1nc(NC2CC2)nc(N[C@@H]2C[C@H](CO)[C@@H](O)[C@H]2O)c1-c1nc2ccccc2s1 [Example 90] = 5.30

I. OC[C@H]1C[C@@H](Nc2nc(NC3CC3)ncc2-c2ccc3ccccc3n2)[C@H](O)[C@@H]1O [Example 60]
II. Cc1nc(Nc2ccncc2)cc(N[C@@H]2C[C@H](CO)[C@@H](O)[C@H]2O)c1-c1nc2ccccc2s1 [Example 150]
Hi team, can someone confirm which has the larger pIC50: I or II ? Thanks. Lab note: record the label of whichever item you select.
I
(I: 5.83, II: 4.80)

a. CN1CCCC(Nc2ncc(-c3nc4ccccc4s3)c(N[C@@H]3C[C@H](CO)[C@@H](O)[C@H]3O)n2)C1 (mixture of isomers) [Example 32]
b. OC[C@H]1C[C@@H](Nc2nc(Nc3ccccc3)ncc2-c2nc3ccccc3s2)[C@H](O)[C@@H]1O [Example 1]
c. COc1cc(Nc2cc(N[C@@H]3C[C@H](CO)[C@@H](O)[C@H]3O)c(-c3nc4ccccc4s3)cn2)ccn1 [Example 155]
d. NC(=O)Cc1cccc(Nc2ncc(-c3nc4ccccc4s3)c(N[C@@H]3C[C@H](CO)[C@@H](O)[C@H]3O)n2)c1 [Example 14]
Please produce an ascending ranking of these compounds based on pIC50. Please list the labels according to the requested order.
a, c, b, d
(a: 6.03, c: 6.43, b: 7.70, d: 8.27)

1. COc1cc(Nc2cc(N[C@@H]3C[C@H](C(C)(C)O)[C@@H](O)[C@H]3O)c(-c3ccc4ccccc4n3)cn2)ccn1 [Example 163]
2. C[C@H]1C[C@@H](Nc2nc(N)ncc2-c2nc3ccccc3s2)[C@H](O)[C@@H]1O [Example 146]
3. Nc1ncc(-c2ccccn2)c(N[C@@H]2C[C@H](CO)[C@@H](O)[C@H]2O)n1 [Example 38]
Please list these compounds in decreasing order of pIC50. Please list the labels according to the requested order.
1, 2, 3

----------
Target: IRAK4 (Homo sapiens (Human), UniProt Q9NWZ3)
pIC50: −log10 of the molar value.
readout.name: pIC50

Solved cases below.
1. Nc1ncc(-c2nc3ccccc3s2)c(N[C@@H]2C[C@H](CO)[C@@H](O)[C@@H]2F)n1 = 5.88
2. CN(C)c1ccc(Nc2ncc(-c3nc4ccccc4s3)c(N[C@@H]3C[C@H](CO)[C@@H](O)[C@H]3O)n2)cc1 = 7.92

A. Nc1ncc(-c2cc3ccccc3s2)c(N[C@@H]2C[C@H](CO)[C@@H](O)[C@H]2O)n1
B. NC(=O)c1cccc(Nc2ncc(-c3nc4ccccc4s3)c(N[C@@H]3C[C@H](CO)[C@@H](O)[C@H]3O)n2)c1
Hi team, can someone confirm which has the larger pIC50: A or B ? Thanks. Lab note: record the label of whichever item you select.
B
(B: 8.28, A: 5.79)

----------
Molecular target: IRAK4 (Homo sapiens (Human), UniProt Q9NWZ3)
pIC50: −log10 of the molar value.
readout.name: pIC50

Solved cases below.
1. CC(C)(O)C1C[C@@H](Nc2nc(Nc3cccc(C(F)(F)F)c3)ncc2-c2nc3ccccc3s2)[C@H](O)[C@@H]1O (stereo in doubt) = 6.41
2. Nc1ccc(-c2nc3ccccc3s2)c(N[C@@H]2C[C@H](CO)[C@@H](O)[C@H]2O)n1 = 5.02
3. OC[C@H]1C[C@@H](Nc2nc(Nc3cncnc3)ncc2-c2nc3ccncc3s2)[C@H](O)[C@@H]1O = 8.22
4. Nc1ncc(-c2nc3cnccc3s2)c(N[C@@H]2C[C@H](CO)[C@@H](O)[C@H]2O)n1 = 7.62
5. COc1cc(Nc2ncc(-c3nc4ccccc4s3)c(N[C@@H]3C[C@H](CO)[C@@H](O)[C@H]3O)n2)ccn1 = 8.34

a. COc1cc(Nc2ncc(-c3nc4ccccc4s3)c(N[C@@H]3C[C@H](CO)[C@@H](O)[C@H]3OC)n2)ccn1
b. Cc1csc(-c2cnc(N)nc2N[C@@H]2C[C@H](C(C)(C)O)[C@@H](O)[C@H]2O)n1
Hi team, can someone confirm which has the larger pIC50: a or b ? Thanks. Lab note: record the label of whichever item you select.
a

I. OC[C@H]1C[C@@H](Nc2nc(Nc3ccc4[nH]ncc4c3)ncc2-c2nc3ccccc3s2)[C@H](O)[C@@H]1O
II. OC[C@H]1C[C@@H](Nc2nc(Nc3ccc(OC(F)(F)F)cc3)ncc2-c2nc3ccccc3s2)[C@H](O)[C@@H]1O
Which entry shows the lesser value of pIC50 here, I or II ? Lab note: record the label of whichever item you select.
II
